Entry source: ChEMBL document CHEMBL3045009

The compounds listed here are annotated with their mortality.
- System: Culex pipiens molestus
- method-summary: Insecticidal activity against Culex pipiens molestus assessed as mortality at 5 ppm
- Format: functional
Field: numeric (%). Do not append units.

# example entries with known answers
compound	mortality, %
CCN(CC)C(=O)[C@]1(C#N)SC[C@H](CN(C)C)CS1	100
CCC(=O)SCC(CSC(=O)CC)CN(C)C.O=C(O)C(=O)O	75
CN(C)C[C@@H]1CCSC(C(=O)c2ccccc2)(C(=O)c2ccccc2)S1.O.O=C(O)C(=O)O	65
CN(C)C[C@@H]1CCSC(C(=O)c2ccccc2)(C(=O)c2ccccc2)S1	40

Field request: mortality | item: CCC(=O)SCC(CSC(=O)CC)CN(C)C
100

How about this compound: CC(C)NC(=O)SCC(CSC(=O)NC(C)C)CN(C)C
100

CN(C)CC(CCSC(=O)c1ccccc1)SC(=O)c1ccccc1.O.O=C(O)C(=O)O (centres undefined) , same question.
100

Next record, please: CSCCC(CN(C)C)SC (centres undefined)
0

Also check CN(C)CC1CSC(C(=O)c2ccccc2)(C(=O)c2ccccc2)SC1
100
